Data credit: ChEMBL document CHEMBL1125830

# TARGET: Insulin receptor (Homo sapiens)
# Sequence (P06213 28-758 limits assumed): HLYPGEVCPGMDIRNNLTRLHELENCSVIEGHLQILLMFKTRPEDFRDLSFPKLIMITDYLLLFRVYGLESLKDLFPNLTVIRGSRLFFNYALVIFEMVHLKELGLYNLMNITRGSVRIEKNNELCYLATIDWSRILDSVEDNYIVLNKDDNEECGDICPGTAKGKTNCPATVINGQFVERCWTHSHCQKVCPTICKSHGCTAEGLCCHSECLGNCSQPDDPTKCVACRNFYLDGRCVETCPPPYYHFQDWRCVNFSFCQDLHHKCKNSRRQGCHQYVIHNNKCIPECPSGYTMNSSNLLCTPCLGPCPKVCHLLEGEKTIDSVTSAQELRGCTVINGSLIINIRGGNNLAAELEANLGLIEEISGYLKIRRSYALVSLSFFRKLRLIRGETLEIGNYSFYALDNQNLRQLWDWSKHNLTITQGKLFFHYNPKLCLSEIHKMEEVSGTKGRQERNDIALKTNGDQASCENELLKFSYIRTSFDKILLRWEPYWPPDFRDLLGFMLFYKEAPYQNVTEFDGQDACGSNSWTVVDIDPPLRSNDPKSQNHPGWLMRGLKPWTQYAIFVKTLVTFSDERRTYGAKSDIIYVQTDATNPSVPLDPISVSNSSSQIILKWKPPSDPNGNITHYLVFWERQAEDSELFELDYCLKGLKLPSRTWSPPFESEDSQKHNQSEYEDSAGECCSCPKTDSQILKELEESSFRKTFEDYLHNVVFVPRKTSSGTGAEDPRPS
# Sequence (P06213 763-1382 limits assumed): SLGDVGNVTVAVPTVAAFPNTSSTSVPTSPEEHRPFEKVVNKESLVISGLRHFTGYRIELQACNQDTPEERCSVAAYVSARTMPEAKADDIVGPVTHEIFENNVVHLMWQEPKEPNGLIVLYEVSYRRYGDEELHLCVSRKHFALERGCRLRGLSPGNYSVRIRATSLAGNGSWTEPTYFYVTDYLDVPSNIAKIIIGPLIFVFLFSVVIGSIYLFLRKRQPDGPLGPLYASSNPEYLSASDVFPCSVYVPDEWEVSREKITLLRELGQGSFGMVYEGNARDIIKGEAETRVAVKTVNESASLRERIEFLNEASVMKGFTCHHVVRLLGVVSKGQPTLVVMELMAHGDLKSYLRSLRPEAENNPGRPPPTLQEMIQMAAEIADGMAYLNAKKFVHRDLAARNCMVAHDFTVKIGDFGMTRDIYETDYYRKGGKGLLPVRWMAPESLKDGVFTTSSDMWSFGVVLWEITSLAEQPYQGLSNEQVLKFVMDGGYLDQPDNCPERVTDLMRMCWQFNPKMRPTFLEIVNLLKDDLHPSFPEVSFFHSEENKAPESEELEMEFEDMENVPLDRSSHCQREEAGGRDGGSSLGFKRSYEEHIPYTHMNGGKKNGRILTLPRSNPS
REPORTED_PROPERTY: pIC50
One number for each entry, as −log10 of the molar value.

Recorded pIC50 for O=P(O)(O)C(O)c1ccc2ccccc2c1 (stereo unspecified) with Insulin receptor (Homo sapiens), please? 3.70
